Recorded values, source the supplement of paper PMC10567573.

B1: ANKRD40 (parent)
chain: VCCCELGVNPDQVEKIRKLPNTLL

Variants of: B1
Test: protein stability index of a GFP-peptide fusion (GPS, HEK-293T) (PSI 1-6); higher = more stable;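 further: lentivirally expressed fusions sorted by FACS into six bins by GFP to DsRed ratio, PSI derived from sequencing read proportions per bin multiplied by bin number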
Conditions: c terminus: a fixed tail appended
Use 2 as the dividing line for protein stability index, with the line itself on the label 1 side and lower values as label 0.

{"MUT": "V1I", "CATEGORY LABEL": "label 0"}
{"MUT": "K18G", "CATEGORY LABEL": "label 0"}
{"MUT": "T22P", "CATEGORY LABEL": "label 1"}
{"MUT": "Q12R", "CATEGORY LABEL": "label 0"}
{"MUT": "V13C", "CATEGORY LABEL": "label 0"}
{"MUT": "K15A", "CATEGORY LABEL": "label 0"}
{"MUT": "L24M", "CATEGORY LABEL": "label 0"}
{"MUT": "N21P", "CATEGORY LABEL": "label 0"}
{"MUT": "I16V", "CATEGORY LABEL": "label 1"}
{"MUT": "L19Q", "CATEGORY LABEL": "label 1"}
{"MUT": "V13Y", "CATEGORY LABEL": "label 0"}
{"MUT": "V13D", "CATEGORY LABEL": "label 1"}
{"MUT": "N21A", "CATEGORY LABEL": "label 0"}
{"MUT": "I16F", "CATEGORY LABEL": "label 0"}
{"MUT": "L24P", "CATEGORY LABEL": "label 1"}
{"MUT": "Q12A", "CATEGORY LABEL": "label 1"}
{"MUT": "G7M", "CATEGORY LABEL": "label 0"}
{"MUT": "E14N", "CATEGORY LABEL": "label 0"}
{"MUT": "P10Y", "CATEGORY LABEL": "label 0"}
{"MUT": "D11L", "CATEGORY LABEL": "label 0"}
{"MUT": "G7Y", "CATEGORY LABEL": "label 0"}
{"MUT": "L23K", "CATEGORY LABEL": "label 1"}
{"MUT": "K18A", "CATEGORY LABEL": "label 0"}
{"MUT": "V1G", "CATEGORY LABEL": "label 0"}
{"MUT": "N9W", "CATEGORY LABEL": "label 1"}
{"MUT": "Q12E", "CATEGORY LABEL": "label 1"}
{"MUT": "K15D", "CATEGORY LABEL": "label 1"}
{"MUT": "T22K", "CATEGORY LABEL": "label 1"}
{"MUT": "V8C", "CATEGORY LABEL": "label 0"}
{"MUT": "D11K", "CATEGORY LABEL": "label 0"}
{"MUT": "V13Q", "CATEGORY LABEL": "label 1"}
{"MUT": "L24C", "CATEGORY LABEL": "label 1"}
{"MUT": "C2P", "CATEGORY LABEL": "label 1"}
{"MUT": "T22E", "CATEGORY LABEL": "label 1"}
{"MUT": "L24D", "CATEGORY LABEL": "label 1"}
{"MUT": "L19R", "CATEGORY LABEL": "label 1"}
{"MUT": "V8Y", "CATEGORY LABEL": "label 0"}
{"MUT": "P10E", "CATEGORY LABEL": "label 1"}
{"MUT": "L23E", "CATEGORY LABEL": "label 1"}
{"MUT": "E5M", "CATEGORY LABEL": "label 0"}
{"MUT": "L6E", "CATEGORY LABEL": "label 1"}
{"MUT": "V13E", "CATEGORY LABEL": "label 1"}
{"MUT": "C2H", "CATEGORY LABEL": "label 1"}
{"MUT": "V13I", "CATEGORY LABEL": "label 0"}
{"MUT": "P20E", "CATEGORY LABEL": "label 0"}
{"MUT": "C2K", "CATEGORY LABEL": "label 1"}
{"MUT": "V13A", "CATEGORY LABEL": "label 0"}
